experiment: Thermodynamic (equilibrium) solubility of the compound measured after 3 days agitation in pH 2 buffer by LC-MS/MS analysis; type: physicochemical; conditions: time 3 day, read-out: Therm_solubility
Below, each entry is listed with its recorded solubility thermodynamic at 72 h.
Give the value in µM but do not write µM after it.

// below: answered molecules
Cc1c(-c2c(-c3ccc(F)o3)sc3ncnc(O[C@H](Cc4ccccc4OCc4ccnn4CC(F)(F)F)C(=O)O)c23)ccc(OCCN2CCN(C)CC2)c1Cl ... 114
CO[C@@]1(CN2CCN3CCOC[C@@H]3C2)/C(F)=C/C[C@H](C)[C@@H](C)S(=O)(=O)NC(=O)c2ccc3c(c2)N(C[C@@H]2CCO[C@H]21)C[C@@]1(CCCc2cc(Cl)ccc21)CO3 ... 69
Cc1c2c(nn1C)CSCc1cc(n(C)n1)CSc1cc(c3ccccc3c1)OCCCc1c(C(=O)O)n(C)c3c-2c(Cl)ccc13 ... 0.6

Could you now look at the following molecule, please?
Query block: I have this molecule here, `CO[C@@]1(CN2CCN3CCCC[C@@H]3C2)/C(F)=C/C[C@H](C)[C@@H](C)S(=O)(=O)NC(=O)c2ccc3c(c2)N(C[C@@H]2CCO[C@H]21)C[C@@]1(CCCc2cc(Cl)ccc21)CO3` , and I need its recorded solubility thermodynamic at 72 h.
Result block: 40

Data origin, for the record: ChEMBL document CHEMBL5380869
